The values you see were collected from patent US20250066503A1.

Would you mind telling me the reported pKd of each entry?
- TESTED ON: T1, human GPC3 (human, UniProt P51654 25-563)
- T1 construct: range 25-563; soluble analyte; also called soluble human GPC3; glypican 3
- T1 sequence (P51654 25-563 limits assumed): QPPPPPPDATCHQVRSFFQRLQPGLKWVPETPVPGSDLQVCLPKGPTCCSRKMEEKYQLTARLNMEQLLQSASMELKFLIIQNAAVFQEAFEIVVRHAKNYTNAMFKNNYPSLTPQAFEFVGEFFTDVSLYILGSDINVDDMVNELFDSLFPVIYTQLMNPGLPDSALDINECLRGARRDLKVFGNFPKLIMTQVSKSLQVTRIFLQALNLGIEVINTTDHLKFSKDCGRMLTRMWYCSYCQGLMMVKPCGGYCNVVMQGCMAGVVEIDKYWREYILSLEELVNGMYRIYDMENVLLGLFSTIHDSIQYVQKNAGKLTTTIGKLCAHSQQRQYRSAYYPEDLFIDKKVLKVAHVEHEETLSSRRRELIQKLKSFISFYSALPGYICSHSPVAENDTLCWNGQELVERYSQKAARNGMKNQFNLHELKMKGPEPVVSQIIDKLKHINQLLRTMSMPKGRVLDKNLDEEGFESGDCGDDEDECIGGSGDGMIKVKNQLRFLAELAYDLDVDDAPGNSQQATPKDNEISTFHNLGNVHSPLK
- EXPERIMENT SUMMARY: SPR
Lab note — pKd values are minus log10 of concentrations in M.

What value of measured pKd is listed for H0610-G1dh/none-Hi-Kn010G3/L0220-k0 (antibody, V domains shown, one-arm) VH: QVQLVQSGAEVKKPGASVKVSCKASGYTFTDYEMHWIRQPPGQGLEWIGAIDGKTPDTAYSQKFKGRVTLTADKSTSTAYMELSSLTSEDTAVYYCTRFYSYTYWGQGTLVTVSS VL: DIVMTQSPLSLPVTPGEPASISCRSSQPLVHSNRNTYLHWYQQKPGQAPRLLIYKVSNRFRGVPDRFSGSGSGTDFTLKISRVEAEDVGVYYCYQGTQVPYTFGQGTKLEIK ?
8.87

What value of measured pKd is listed for H0610-G1dh/none-Hi-Kn010G3/TR01L018-k0 (antibody, V domains shown, one-arm) VH: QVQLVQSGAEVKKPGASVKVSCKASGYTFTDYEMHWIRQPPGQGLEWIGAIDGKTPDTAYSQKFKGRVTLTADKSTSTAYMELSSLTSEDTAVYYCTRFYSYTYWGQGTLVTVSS VL: DIVMTQSPLSLPVTPGEPASISCQASESPVHSNRNTYLHWYLQKPGQSPQLLIYKVSNRFSGVPDRFSGSGSGTDFTLKISRVEAEDVGVYYCGQGTQVPYTFGQGTKLEIK ?
8.66

What value of measured pKd is listed for GCH015-G1dh/none-Hi-Kn010G3/L0000-k0 (antibody, V domains shown, one-arm) VH: QVQLVQSGAEVKKPGASVKVSCKASGYTFTDYEMHWIRQPPGQGLEWIGAIDGKTPDTAYEESFKGRVTLTADKSTSTAYMELSSLTSEDTAVYYCTRFYSYTYWGQGTLVTVSS VL: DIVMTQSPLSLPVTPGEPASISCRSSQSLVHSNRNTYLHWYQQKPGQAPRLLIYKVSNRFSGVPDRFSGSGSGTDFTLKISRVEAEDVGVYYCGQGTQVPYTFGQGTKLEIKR ?
8.38
